The measured values listed here are drawn from ChEMBL document CHEMBL4689842.

We begin with a simple list: items and their reported Population Healthy Nuclei (%).
- Test system: U2OS
- procedure-summary: Multiplex assay against U2OS
- Assay type: toxicity, cell-based
- test-settings: human, 12 h, 10 µM, compound concentration 10 uM, replicate 2
Entry format: amount then unit.

CC(C)C[C@H](NC(=O)[C@H](Cc1ccccc1)NC(=O)CNC(=O)CNC(=O)[C@@H](N)Cc1ccc(O)cc1)C(=O)O ... 86%

// query Data request, read-out Population Healthy Nuclei (%), for `Cc1c(P(=S)(c2ccccc2)c2ccccc2)n2ccccc2[n+]1C/C=C/c1ccccc1.[Br-]`
// result 10%

// query Now give it for `C=CC(=O)Nc1cc(-n2c(=O)ccc3cnc4ccc(-c5ccc(NS(C)(=O)=O)cc5)cc4c32)ccc1C` too.
// result 54%

// query Now give it for `Cc1ccc(S(=O)(=O)NC2c3ccccc3Oc3ccccc32)cc1` too.
// result 34%

// query Now give it for `CC[C@@H]1C(=O)N(C)c2cnc(Nc3ccc(C(=O)NC4CCN(C)CC4)cc3OC)nc2N1C1CCCC1` too.
// result 67%
